Task for the reader: assign each of the following sequences its reported PBM binding z-score.
- Tested on: LXRa:RXRa (NR concentration 270 nM, RXRa partner concentration 90 nM)
- assay: PBM binding z-score (relative to random genomic background probes); higher = stronger binding; sequences stand for … in GC…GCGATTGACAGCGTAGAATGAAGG

Challenge: Write down the reported PBM binding z-score of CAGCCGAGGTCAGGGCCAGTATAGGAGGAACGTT , test system: LXRa:RXRa (NR concentration 270 nM, RXRa partner concentration 90 nM).
Response given: 3.98

Challenge: Consider next the sequence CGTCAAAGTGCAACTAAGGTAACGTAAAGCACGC in the same way.
Response given: 0.803

Challenge: Consider next the sequence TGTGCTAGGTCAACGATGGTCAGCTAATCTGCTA in the same way.
Response given: 2.67

----------
- Tested on: RARb:RXRa (NR concentration 270 nM, RXRa partner concentration 90 nM)
- assay: PBM binding z-score (relative to random genomic background probes); higher = stronger binding; sequences stand for … in GC…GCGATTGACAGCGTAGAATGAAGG
property name: PBM binding z-score

Challenge: Quick one: PBM binding z-score for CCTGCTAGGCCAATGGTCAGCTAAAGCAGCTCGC ?
Response given: 0.755

Challenge: Consider next the sequence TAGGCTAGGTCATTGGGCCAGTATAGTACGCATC in the same way.
Response given: 3.79

Challenge: Consider next the sequence CCAACTAGGTCAAGGTCAAAGTCGGTTTGTGCCA in the same way.
Response given: 5.3

Challenge: Consider next the sequence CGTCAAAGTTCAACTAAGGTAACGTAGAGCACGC in the same way.
Response given: 5.24

Challenge: Consider next the sequence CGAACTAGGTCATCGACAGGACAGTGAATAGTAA in the same way.
Response given: 3.88

Challenge: Consider next the sequence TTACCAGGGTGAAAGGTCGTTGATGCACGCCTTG in the same way.
Response given: 2.59

Challenge: Consider next the sequence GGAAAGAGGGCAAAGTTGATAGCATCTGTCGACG in the same way.
Response given: 2.77

Challenge: Consider next the sequence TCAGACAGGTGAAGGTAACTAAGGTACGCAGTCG in the same way.
Response given: 1.24

Challenge: Consider next the sequence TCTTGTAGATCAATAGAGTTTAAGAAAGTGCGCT in the same way.
Response given: 0.375

Challenge: Consider next the sequence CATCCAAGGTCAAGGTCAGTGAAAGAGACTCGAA in the same way.
Response given: 5.77

Challenge: Consider next the sequence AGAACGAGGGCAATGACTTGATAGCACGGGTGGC in the same way.
Response given: 2.11

Challenge: Consider next the sequence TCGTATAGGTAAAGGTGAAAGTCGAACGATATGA in the same way.
Response given: 2.07

Challenge: Consider next the sequence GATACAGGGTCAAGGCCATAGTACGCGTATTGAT in the same way.
Response given: 4.41

Challenge: Consider next the sequence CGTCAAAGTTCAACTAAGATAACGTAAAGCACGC in the same way.
Response given: 5.08

Challenge: Consider next the sequence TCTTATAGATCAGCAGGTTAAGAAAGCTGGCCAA in the same way.
Response given: 0.115

Challenge: Consider next the sequence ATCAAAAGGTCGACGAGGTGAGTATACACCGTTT in the same way.
Response given: 4

Challenge: Consider next the sequence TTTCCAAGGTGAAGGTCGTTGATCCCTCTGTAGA in the same way.
Response given: 2.29

Challenge: Consider next the sequence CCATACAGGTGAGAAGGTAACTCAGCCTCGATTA in the same way.
Response given: 0.628

Challenge: Consider next the sequence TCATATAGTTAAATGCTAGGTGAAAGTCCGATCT in the same way.
Response given: 0.272

Challenge: Consider next the sequence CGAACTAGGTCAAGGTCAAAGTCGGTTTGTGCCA in the same way.
Response given: 4.93

Challenge: Consider next the sequence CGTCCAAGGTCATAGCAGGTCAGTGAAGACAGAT in the same way.
Response given: 5.09

Challenge: Consider next the sequence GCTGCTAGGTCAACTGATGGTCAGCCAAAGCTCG in the same way.
Response given: 4.27

Challenge: Consider next the sequence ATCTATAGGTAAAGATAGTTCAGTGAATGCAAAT in the same way.
Response given: 0.78

Challenge: Consider next the sequence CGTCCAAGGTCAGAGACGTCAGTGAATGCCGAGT in the same way.
Response given: 4.37

Challenge: Consider next the sequence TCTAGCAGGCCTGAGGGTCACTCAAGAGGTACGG in the same way.
Response given: 2.12

Challenge: Consider next the sequence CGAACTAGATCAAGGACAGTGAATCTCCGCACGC in the same way.
Response given: 0.0814

Challenge: Consider next the sequence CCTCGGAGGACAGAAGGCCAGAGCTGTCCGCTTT in the same way.
Response given: 0.374

Challenge: Consider next the sequence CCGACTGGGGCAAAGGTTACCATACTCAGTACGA in the same way.
Response given: 2.4

Challenge: Consider next the sequence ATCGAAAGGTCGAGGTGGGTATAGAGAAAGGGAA in the same way.
Response given: 4.34

Challenge: Consider next the sequence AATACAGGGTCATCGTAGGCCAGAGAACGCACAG in the same way.
Response given: 4.56

Challenge: Consider next the sequence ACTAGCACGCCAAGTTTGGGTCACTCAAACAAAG in the same way.
Response given: 1

Challenge: Consider next the sequence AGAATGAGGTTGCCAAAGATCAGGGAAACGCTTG in the same way.
Response given: 0.286

Challenge: Consider next the sequence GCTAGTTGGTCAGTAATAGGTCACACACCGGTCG in the same way.
Response given: 2.57

Challenge: Consider next the sequence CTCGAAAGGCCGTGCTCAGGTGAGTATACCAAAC in the same way.
Response given: 1.05

Challenge: Consider next the sequence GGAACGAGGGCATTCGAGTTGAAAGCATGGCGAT in the same way.
Response given: 1.71

Challenge: Consider next the sequence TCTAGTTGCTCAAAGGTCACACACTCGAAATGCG in the same way.
Response given: 4.94

Challenge: Consider next the sequence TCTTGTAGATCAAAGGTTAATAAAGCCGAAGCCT in the same way.
Response given: 1.64

Challenge: Consider next the sequence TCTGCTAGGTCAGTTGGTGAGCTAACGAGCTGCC in the same way.
Response given: 3.16

----------
- Tested on: THRa homodimer (NR concentration 90 nM)
- assay: PBM binding z-score (relative to random genomic background probes); higher = stronger binding; sequences stand for … in GC…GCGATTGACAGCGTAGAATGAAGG
property name: PBM binding z-score
Reply with just the number.

Challenge: Quick one: PBM binding z-score for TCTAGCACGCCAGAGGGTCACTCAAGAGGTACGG ?
Response given: -0.414

Challenge: Consider next the sequence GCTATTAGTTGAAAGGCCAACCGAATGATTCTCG in the same way.
Response given: -0.222

Challenge: Consider next the sequence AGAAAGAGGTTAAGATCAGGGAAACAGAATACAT in the same way.
Response given: 0.45

Challenge: Consider next the sequence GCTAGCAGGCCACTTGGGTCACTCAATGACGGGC in the same way.
Response given: 0.36

Challenge: Consider next the sequence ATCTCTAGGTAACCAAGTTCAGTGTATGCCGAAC in the same way.
Response given: 0.867

Challenge: Consider next the sequence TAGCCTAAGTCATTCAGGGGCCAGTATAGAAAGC in the same way.
Response given: -0.418

Challenge: Consider next the sequence TAGCCTAGGTCATGGGCCAGTATTCCACGCGAAC in the same way.
Response given: 1.33

Challenge: Consider next the sequence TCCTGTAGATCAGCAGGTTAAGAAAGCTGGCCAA in the same way.
Response given: -0.526

Challenge: Consider next the sequence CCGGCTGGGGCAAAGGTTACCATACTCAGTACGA in the same way.
Response given: -0.377

Challenge: Consider next the sequence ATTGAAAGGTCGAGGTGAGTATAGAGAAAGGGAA in the same way.
Response given: 1.04

Challenge: Consider next the sequence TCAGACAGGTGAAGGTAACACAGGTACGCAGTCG in the same way.
Response given: 0.868

Challenge: Consider next the sequence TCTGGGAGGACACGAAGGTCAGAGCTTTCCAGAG in the same way.
Response given: 1.18

Challenge: Consider next the sequence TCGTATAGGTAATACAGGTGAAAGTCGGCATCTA in the same way.
Response given: 0.259

Challenge: Consider next the sequence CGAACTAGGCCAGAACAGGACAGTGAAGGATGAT in the same way.
Response given: -0.576

Challenge: Consider next the sequence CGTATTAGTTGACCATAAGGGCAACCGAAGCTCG in the same way.
Response given: 1.15

Challenge: Consider next the sequence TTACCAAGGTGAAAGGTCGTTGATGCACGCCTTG in the same way.
Response given: 0.838

Challenge: Consider next the sequence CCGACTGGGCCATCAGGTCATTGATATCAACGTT in the same way.
Response given: 2.95

Challenge: Consider next the sequence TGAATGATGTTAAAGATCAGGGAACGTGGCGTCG in the same way.
Response given: -0.77

Challenge: Consider next the sequence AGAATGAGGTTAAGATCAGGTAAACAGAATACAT in the same way.
Response given: 1.36

Challenge: Consider next the sequence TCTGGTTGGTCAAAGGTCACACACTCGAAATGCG in the same way.
Response given: 2.65

Challenge: Consider next the sequence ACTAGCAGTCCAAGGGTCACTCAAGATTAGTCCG in the same way.
Response given: 0.466

Challenge: Consider next the sequence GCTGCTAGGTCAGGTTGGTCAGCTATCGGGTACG in the same way.
Response given: 0.785

Challenge: Consider next the sequence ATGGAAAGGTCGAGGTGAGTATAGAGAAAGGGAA in the same way.
Response given: 1.47

Challenge: Consider next the sequence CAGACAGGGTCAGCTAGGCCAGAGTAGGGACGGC in the same way.
Response given: 0.505

Challenge: Consider next the sequence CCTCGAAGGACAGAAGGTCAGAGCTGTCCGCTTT in the same way.
Response given: 0.0154

Challenge: Consider next the sequence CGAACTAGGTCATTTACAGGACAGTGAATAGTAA in the same way.
Response given: 0.896

Challenge: Consider next the sequence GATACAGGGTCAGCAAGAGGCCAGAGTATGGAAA in the same way.
Response given: 0.361

Challenge: Consider next the sequence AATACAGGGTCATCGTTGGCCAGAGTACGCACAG in the same way.
Response given: 1.53

Challenge: Consider next the sequence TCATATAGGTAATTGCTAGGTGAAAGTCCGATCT in the same way.
Response given: 0.689

Challenge: Consider next the sequence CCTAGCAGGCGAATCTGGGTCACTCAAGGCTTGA in the same way.
Response given: 0.222

Challenge: Consider next the sequence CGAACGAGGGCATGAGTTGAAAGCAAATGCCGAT in the same way.
Response given: -0.313

Challenge: Consider next the sequence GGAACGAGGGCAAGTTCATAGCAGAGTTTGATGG in the same way.
Response given: 0.375

Challenge: Consider next the sequence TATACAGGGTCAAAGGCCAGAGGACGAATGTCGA in the same way.
Response given: 0.968

Challenge: Consider next the sequence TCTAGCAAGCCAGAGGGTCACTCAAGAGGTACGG in the same way.
Response given: -0.484

Challenge: Consider next the sequence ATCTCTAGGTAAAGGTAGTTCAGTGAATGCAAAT in the same way.
Response given: 0.679

Challenge: Consider next the sequence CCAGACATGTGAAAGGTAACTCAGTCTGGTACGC in the same way.
Response given: -0.146

Challenge: Consider next the sequence TCTCGGAGGACACGAAGGCCAGAGCTTTCCAGAG in the same way.
Response given: 0.215

Challenge: Consider next the sequence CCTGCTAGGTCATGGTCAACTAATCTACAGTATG in the same way.
Response given: 1.41

Challenge: Consider next the sequence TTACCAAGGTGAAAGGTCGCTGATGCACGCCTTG in the same way.
Response given: 0.725

Challenge: Consider next the sequence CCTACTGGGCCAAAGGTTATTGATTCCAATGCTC in the same way.
Response given: -0.123

Challenge: Consider next the sequence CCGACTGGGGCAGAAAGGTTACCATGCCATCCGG in the same way.
Response given: -0.541
